Experiment: Acute toxicity in iv dosed ICR mouse assessed as maximum tolerated dose measured after 7 days
Format: organism-based
Settings: in vivo, time 7 day
ASSAY READOUT: MTD at 168 h (mg/kg)
// note: answer is a bare numeric in mg/kg

Sample NCCOc1ccc(-c2cc[n+](Cc3ccc(C(c4ccc(C[n+]5ccc(-c6ccc(OCCN)c(OCCN)c6)cc5)cc4)(c4ccc(C[n+]5ccc(-c6ccc(OCCN)c(OCCN)c6)cc5)cc4)c4ccc(C[n+]5ccc(-c6ccc(OCCN)c(OCCN)c6)cc5)cc4)cc3)cc2)cc1OCCN.[Cl-].[Cl-].[Cl-].[Cl-] — what was its MTD at 168 h?
25

Again, but for NCC(=O)Nc1ccc(-c2cc[n+](Cc3ccc(C(c4ccc(C[n+]5ccc(-c6ccc(NC(=O)CN)cc6)cc5)cc4)(c4ccc(C[n+]5ccc(-c6ccc(NC(=O)CN)cc6)cc5)cc4)c4ccc(C[n+]5ccc(-c6ccc(NC(=O)CN)cc6)cc5)cc4)cc3)cc2)cc1.[Cl-].[Cl-].[Cl-].[Cl-]
8

Again, but for NCCOc1ccc(-c2cc[n+](Cc3ccc(C(c4ccc(C[n+]5ccc(-c6ccc(OCCN)cc6)cc5)cc4)(c4ccc(C[n+]5ccc(-c6ccc(OCCN)cc6)cc5)cc4)c4ccc(C[n+]5ccc(-c6ccc(OCCN)cc6)cc5)cc4)cc3)cc2)cc1.[Cl-].[Cl-].[Cl-].[Cl-]
17.5

Again, but for NCCSc1ccc(-c2cc[n+](Cc3ccc(C(c4ccc(C[n+]5ccc(-c6ccc(SCCN)cc6)cc5)cc4)(c4ccc(C[n+]5ccc(-c6ccc(SCCN)cc6)cc5)cc4)c4ccc(C[n+]5ccc(-c6ccc(SCCN)cc6)cc5)cc4)cc3)cc2)cc1.[Cl-].[Cl-].[Cl-].[Cl-]
8

Again, but for NCCOc1cc(-c2cc[n+](Cc3ccc(C(c4ccc(C[n+]5ccc(-c6cc(OCCN)c(OCCN)c(OCCN)c6)cc5)cc4)(c4ccc(C[n+]5ccc(-c6cc(OCCN)c(OCCN)c(OCCN)c6)cc5)cc4)c4ccc(C[n+]5ccc(-c6cc(OCCN)c(OCCN)c(OCCN)c6)cc5)cc4)cc3)cc2)cc(OCCN)c1OCCN.[Cl-].[Cl-].[Cl-].[Cl-]
20

====

Organism: Bos taurus
Test: Neutralization of dalteparin sodium in bovine plasma at 10 to 60 ug/ml by aPTT assay
Assay type: cell-free
Conditions: dose 10-60 µg/ml
Activity calls are given as the source filed them. The rule behind the calls is not given here.
ASSAY READOUT: Activity

These recorded examples may help you get a feel for the data.
NCCOc1ccc(-n2cc[n+](Cc3ccc(C(c4ccc(C[n+]5ccn(-c6ccc(OCCN)cc6)c5)cc4)(c4ccc(C[n+]5ccn(-c6ccc(OCCN)cc6)c5)cc4)c4ccc(C[n+]5ccn(-c6ccc(OCCN)cc6)c5)cc4)cc3)c2)cc1    Active
NCCOc1ccc(-c2cc[n+](Cc3ccc(C(c4ccc(C[n+]5ccc(-c6ccc(OCCN)c(OCCN)c6)cc5)cc4)(c4ccc(C[n+]5ccc(-c6ccc(OCCN)c(OCCN)c6)cc5)cc4)c4ccc(C[n+]5ccc(-c6ccc(OCCN)c(OCCN)c6)cc5)cc4)cc3)cc2)cc1OCCN.[Cl-].[Cl-].[Cl-].[Cl-]    Active
NCCSc1ccc(-c2cc[n+](Cc3ccc(C(c4ccc(C[n+]5ccc(-c6ccc(SCCN)cc6)cc5)cc4)(c4ccc(C[n+]5ccc(-c6ccc(SCCN)cc6)cc5)cc4)c4ccc(C[n+]5ccc(-c6ccc(SCCN)cc6)cc5)cc4)cc3)cc2)cc1.[Cl-].[Cl-].[Cl-].[Cl-]    Active
COc1ccc(-c2cc[n+](Cc3ccc(C(c4ccc(C[n+]5ccc(-c6ccc(OC)cc6)cc5)cc4)(c4ccc(C[n+]5ccc(-c6ccc(OC)cc6)cc5)cc4)c4ccc(C[n+]5ccc(-c6ccc(OC)cc6)cc5)cc4)cc3)cc2)cc1    inactive
c1cc[n+](Cc2ccc(C(c3ccc(C[n+]4ccccc4)cc3)(c3ccc(C[n+]4ccccc4)cc3)c3ccc(C[n+]4ccccc4)cc3)cc2)cc1    inactive

Sample NCCOc1ccc2c[n+](Cc3ccc(C(c4ccc(C[n+]5ccc6cc(OCCN)ccc6c5)cc4)(c4ccc(C[n+]5ccc6cc(OCCN)ccc6c5)cc4)c4ccc(C[n+]5ccc6cc(OCCN)ccc6c5)cc4)cc3)ccc2c1 — what was its Activity?
Active

Again, but for Cn1cc[n+](Cc2ccc(C(c3ccc(C[n+]4ccn(C)c4)cc3)(c3ccc(C[n+]4ccn(C)c4)cc3)c3ccc(C[n+]4ccn(C)c4)cc3)cc2)c1
inactive

Again, but for NCC(=O)Nc1ccc(-c2cc[n+](Cc3ccc(C(c4ccc(C[n+]5ccc(-c6ccc(NC(=O)CN)cc6)cc5)cc4)(c4ccc(C[n+]5ccc(-c6ccc(NC(=O)CN)cc6)cc5)cc4)c4ccc(C[n+]5ccc(-c6ccc(NC(=O)CN)cc6)cc5)cc4)cc3)cc2)cc1.[Cl-].[Cl-].[Cl-].[Cl-]
Active

Again, but for NCCOc1cc(-c2cc[n+](Cc3ccc(C(c4ccc(C[n+]5ccc(-c6cc(OCCN)c(OCCN)c(OCCN)c6)cc5)cc4)(c4ccc(C[n+]5ccc(-c6cc(OCCN)c(OCCN)c(OCCN)c6)cc5)cc4)c4ccc(C[n+]5ccc(-c6cc(OCCN)c(OCCN)c(OCCN)c6)cc5)cc4)cc3)cc2)cc(OCCN)c1OCCN.[Cl-].[Cl-].[Cl-].[Cl-]
Active

Again, but for NCCCOc1ccc(-c2cc[n+](Cc3ccc(C(c4ccc(C[n+]5ccc(-c6ccc(OCCCN)cc6)cc5)cc4)(c4ccc(C[n+]5ccc(-c6ccc(OCCCN)cc6)cc5)cc4)c4ccc(C[n+]5ccc(-c6ccc(OCCCN)cc6)cc5)cc4)cc3)cc2)cc1.[Cl-].[Cl-].[Cl-].[Cl-]
Active

The origin of these recorded values is ChEMBL document CHEMBL5518209.
